test system: NCI-H292 lung cancer cells; experiment: FDA drug screening, complete media vs cholesterol-free media with simvastatin (TABLE 2); format: cell-based, human; conditions: complete media vs cholesterol-free media + simvastatin (0.04 μM); >0 enhanced anti-cancer activity, about 0 neutral, <0 antagonist
Counter-ions that a name gives are not always drawn.
# label = true if Difference < -0.2 else false

INSERT INTO measurements (compound, target_under_test, class_label) VALUES
  ('COc1ccc2cccc(CCNC(C)=O)c2c1', 'NCI-H292 lung cancer cells', 'true'),
  ('COC(=O)[C@@H]1CC2=CC(=O)CC[C@]2(C)[C@@]23O[C@@H]2C[C@@]2(C)[C@@H](CC[C@@]24CCC(=O)O4)[C@H]13', 'NCI-H292 lung cancer cells', 'false'),
  ('CCOc1ccc2nc(S(N)(=O)=O)sc2c1 [Ethoxzolamide]', 'NCI-H292 lung cancer cells', 'false'),
  ('O=C(O)C1=C(CSc2nnnn2CS(=O)(=O)O)CS[C@@H]2[C@H](NC(=O)[C@H](O)c3ccccc3)C(=O)N12 [Cefonicid (sodium)]', 'NCI-H292 lung cancer cells', 'false'),
  ('Nc1[nH]c(=O)ncc1F', 'NCI-H292 lung cancer cells', 'true'),
  ('CC(=O)Oc1ccccc1C(=O)O', 'NCI-H292 lung cancer cells', 'true'),
  ('C=CC(=O)Nc1cccc(Oc2nc(Nc3ccc(N4CCN(C)CC4)cc3)nc3ccsc23)c1', 'NCI-H292 lung cancer cells', 'false'),
  ('CC(C)NC[C@@H](O)COc1ccc(CC(N)=O)cc1 [(R)-(+)-Atenolol]', 'NCI-H292 lung cancer cells', 'true'),
  ('O=C(O)CCCc1ccccc1', 'NCI-H292 lung cancer cells', 'false'),
  ('COc1ccc2cc1Oc1ccc(cc1)C[C@H]1c3cc(c(OC)cc3CCN1C)Oc1c(OC)c(OC)cc3c1[C@H](C2)N(C)CC3', 'NCI-H292 lung cancer cells', 'false'),
  ('Nc1ccc(O)c(C(=O)O)c1', 'NCI-H292 lung cancer cells', 'true'),
  ('C=C1CCC2CC1C2(C)C (centres unmarked)', 'NCI-H292 lung cancer cells', 'true'),
  ('CC(=O)N(CC(O)CO)c1c(I)c(C(=O)NCCO)c(I)c(C(=O)NCC(O)CO)c1I (centres unmarked)', 'NCI-H292 lung cancer cells', 'true'),
  ('COc1cc(O)c(C(=O)Nc2nc(C(=O)NCCN(C(C)C)C(C)C)cs2)cc1OC', 'NCI-H292 lung cancer cells', 'true'),
  ('NC[C@H]1O[C@H](O[C@H]2[C@H](O[C@@H]3O[C@H](CO)[C@@H](O)[C@H]3O)[C@@H](O)[C@H](N)C[C@@H]2N)[C@H](N)[C@@H](O)[C@@H]1O.O=S(=O)(O)O [Ribostamycin (sulfate)]', 'NCI-H292 lung cancer cells', 'true'),
  ('CC(C)C[C@H](NC(=O)[C@@H](O)[C@H](N)Cc1ccccc1)C(=O)O [Bestatin (hydrochloride)]', 'NCI-H292 lung cancer cells', 'false'),
  ('CC(=O)Oc1cc(C(F)(F)F)ccc1C(=O)O', 'NCI-H292 lung cancer cells', 'false'),
  ('COc1ccc(C(=O)c2ccccc2)c(O)c1', 'NCI-H292 lung cancer cells', 'true'),
  ('COc1cc2c(cc1OC)[C@H]1C[C@@H](OC(=O)[C@@H](N)C(C)C)[C@H](CC(C)C)CN1CC2', 'NCI-H292 lung cancer cells', 'true'),
  ('COc1c2occc2cc2ccc(=O)oc12', 'NCI-H292 lung cancer cells', 'true'),
  ('CCCc1c2oc(C(=O)O)cc(=O)c2cc2c(=O)cc(C(=O)O)n(CC)c12', 'NCI-H292 lung cancer cells', 'true'),
  ('c1ccc([C@H]2CN3CCSC3=N2)cc1 [Levamisole (hydrochloride)]', 'NCI-H292 lung cancer cells', 'true'),
  ('CO[C@@H]1[C@H](N(C)C(=O)c2ccccc2)C[C@H]2O[C@]1(C)n1c3ccccc3c3c4c(c5c6ccccc6n2c5c31)C(=O)NC4', 'NCI-H292 lung cancer cells', 'false'),
  ('CN1CCC(=C2c3ccccc3Sc3ccccc32)CC1 [Pimethixene maleate]', 'NCI-H292 lung cancer cells', 'false'),
  ('Cc1onc(-c2ccccc2)c1C(=O)N[C@@H]1C(=O)N2[C@@H]1SC(C)(C)[C@@H]2C(=O)O [Oxacillin (sodium monohydrate)]', 'NCI-H292 lung cancer cells', 'true'),
  ('Cc1nnc(SCC2=C(C(=O)[O-])N3C(=O)[C@@H](NC(=O)Cn4cnnn4)[C@H]3SC2)s1.[Na+] [Cefazolin (sodium)]', 'NCI-H292 lung cancer cells', 'true'),
  ('N[C@@H](CC(=O)N1CCn2c(nnc2C(F)(F)F)C1)Cc1cc(F)c(F)cc1F', 'NCI-H292 lung cancer cells', 'false'),
  ('CN(C)c1cc(CNCC(C)(C)C)c(O)c2c1C[C@H]1C[C@H]3[C@H](N(C)C)C(O)=C(C(N)=O)C(=O)[C@@]3(O)C(O)=C1C2=O [Omadacycline (hydrochloride)]', 'NCI-H292 lung cancer cells', 'false'),
  ('CCCCN(CCCC)CCC(O)c1cc2c(Cl)cc(Cl)cc2c2cc(C(F)(F)F)ccc12 (centres unmarked) [Halofantrine hydrochloride]', 'NCI-H292 lung cancer cells', 'true'),
  ('CO[C@@H]1[C@@H](OC(N)=O)[C@@H](O)[C@H](Oc2ccc3c(O)c(NC(=O)c4ccc(O)c(CC=C(C)C)c4)c(=O)oc3c2C)OC1(C)C [Novobiocin (Sodium)]', 'NCI-H292 lung cancer cells', 'false'),
  ('CCCCc1nc(Cl)c(CO)n1Cc1ccc(-c2ccccc2-c2nn[nH]n2)cc1 [Losartan]', 'NCI-H292 lung cancer cells', 'true'),
  ('CN1CCCC(n2nc(Cc3ccc(Cl)cc3)c3ccccc3c2=O)CC1 (centres unmarked) [Azelastine (hydrochloride)]', 'NCI-H292 lung cancer cells', 'true');

// data source = patent US20250144067A1
